melting point overview
Counter-ions that a name gives are not always drawn.

// solved cases for melting point follow
[
  {
    "compound": "COc1cc2nc(N3CCc4c(cccc4C(=N)N4CCOCC4)C3)[nH]c(=O)c2cc1OC (as salt: hydrochloric acid salt)",
    "melting point": "249 to 251 °C"
  },
  {
    "compound": "COc1cc2nc(N3CCc4c(CN5CCOCC5)cccc4C3)[nH]c(=O)c2cc1OC (as salt: hydrochloric acid salt)",
    "melting point": "227.9 to 229.6 °C"
  }
]

Query: Identify measured melting point corresponding to COc1cc2nc(N3CCc4c(cccc4-c4cnccc4N)C3)[nH]c(=O)c2cc1OC (as salt: hydrochloric acid salt)
Reply: > 300 °C

Query: Identify measured melting point corresponding to `COc1cc2nc(N3CCc4c(ncnc4N4CCOCC4)C3)[nH]c(=O)c2cc1OC`
Reply: 287.7 to 290.4 °C

Query: Identify measured melting point corresponding to `COc1cc2nc(N3CCc4c(cccc4S(=O)(=O)N4CCN(C)CC4)C3)[nH]c(=O)c2cc1OC`
Reply: 230 to 237 °C

Query: Identify measured melting point corresponding to `COc1cc2[nH]c(N3CCn4c(-c5ccccc5)cnc4C3)nc(=O)c2cc1OC`
Reply: > 300 °C

Query: Identify measured melting point corresponding to `COc1cc2nc(N3CCn4c(cnc4NC4CCCCC4)C3)[nH]c(=O)c2cc1OC`
Reply: 248 to 249.4 °C

Query: Identify measured melting point corresponding to `COc1cc2c(cc1OC)CN(c1nc(=O)c3cc(OC)c(OC)cc3[nH]1)CC2`
Reply: 188.6 to 190.4 °C

All figures here come from patent US6900220B2.
